These data points were gathered from ChEMBL document CHEMBL3593214.

viability at 50 µM for assorted compounds
test: Cytotoxicity against mouse BV2 cells assessed as cell viability at 50 uM by MTT assay relative to control; assay type: cell-based, BV-2; details: read-out: Activity

{"columns": ["compound.string", "viability at 50 µM / %"],
 "data": [
  ["CC(C)[C@@]1(O)C=C2C(=O)C[C@@H]3[C@@](C)(CO)CCC[C@@]3(C)[C@@H]2CC1", 96.8],
  ["CNC(=N)NCCC[C@H](N)C(=O)O", 98.5],
  ["CO[C@]1(C(C)C)C=C2C(=O)C[C@@H]3C(C)(C)[C@H](O)CC[C@@]3(C)[C@@H]2CC1", 96.7],
  ["CC(C)c1ccc2c(c1)[C@H](O)C[C@@H]1C(C)(C)[C@H](O)CC[C@@]21C", 94.7],
  ["CC(C)(O)c1ccc2c(c1)CC[C@@H]1C(C)(C)[C@H](O)CC[C@@]21C", 95.4],
  ["CC(C)[C@@]1(O)C=C2C(=O)C[C@@H]3C(C)(C)[C@H](O)CC[C@@]3(C)[C@@H]2C[C@H]1O", 98.4]
]}
